Molecular target: GABA A α5 (α5β3γ2) (Homo sapiens, UniProt P18507+P31644)
Construct: expressed in transfected cells; host or cells: HEK293, transiently transfected; membrane preparation
Experiment: [3H]flumazenil competition binding, human GABA A α5 receptor
Details: human receptor α5β3γ2 transiently transfected in HEK293 cells; competition for [3H]flumazenil 0.5 nM; 1 hour at 4° C.; means of two determinations; read-out: hKi GABA A α5
Class membership depends on Ki alone; the intervals are LOW: < 5 nM; MEDIUM: ≥ 5 nM and < 20 nM; HIGH: ≥ 20 nM

Record excerpt, results attached:
# COMPOUND, CLASSIFICATION
measured = [
    ("Cc1nc(CCc2c(-c3ccccn3)noc2C)sc1C(=O)NCCO", "MEDIUM"),
    ("CCCCc1noc(C)c1CCc1ncc(C(=O)NC(C)C)s1", "HIGH"),
    ("Cc1onc(-c2ccccc2)c1CCc1ncc(C(=O)NC(C)C)s1", "MEDIUM"),
]

Q: Just checking, what class would you give CCCCc1noc(C)c1/C=C/c1nc(C)c(C(=O)N2CC(F)(F)C2)s1 here?
Ans: HIGH

Q: Repeat with CCCCc1noc(C)c1CCc1ncc(C(=O)NC2CCOC2)s1 (stereo not drawn)
Ans: HIGH

Q: Repeat with CCCCc1noc(C)c1/C=C/c1nc(C)c(C(=O)NC(C)(C)CO)s1
Ans: HIGH

Q: Repeat with CCCCc1noc(C)c1/C=C/c1nc(C)c(C(=O)NCC2CC2)s1
Ans: LOW

Q: Repeat with Cc1nc(CCc2c(-c3ccccn3)noc2C)sc1C(=O)NCC(F)(F)F
Ans: LOW

---

Here, each record is paired with measured Ki data.
Target: GABA A α5 (α5β3γ2) (Homo sapiens, UniProt P18507+P31644)
Construct: expressed in transfected cells; host or cells: HEK293, transiently transfected; membrane preparation
Assay: [3H]flumazenil competition binding, human GABA A α5 receptor
Conditions: human receptor α5β3γ2 transiently transfected in HEK293 cells; competition for [3H]flumazenil 0.5 nM; 1 hour at 4° C.; means of two determinations; read-out: hKi GABA A α5
Report only the number, with the unit nM understood.

Q: Quick one: Ki for CCCCc1noc(C)c1/C=C/c1nc(C)c(C(=O)NCC(F)(F)F)s1 [Example 119] ?
Ans: 2.4

---

Target: GABA A α5 (α5β3γ2) (Homo sapiens, UniProt P18507+P31644)
Construct: expressed in transfected cells; host or cells: HEK293, transiently transfected; membrane preparation
Assay: [3H]flumazenil competition binding, human GABA A α5 receptor
Conditions: human receptor α5β3γ2 transiently transfected in HEK293 cells; competition for [3H]flumazenil 0.5 nM; 1 hour at 4° C.; means of two determinations; read-out: hKi GABA A α5
Here, each record is paired with measured Ki data.
The reply should read as a number followed by its unit.

Worked cases, answers included:
# COMPOUND, SYSTEM TESTED, Ki
data = [
    ("Cc1nc(/C=C/c2c(-c3ccc(F)cn3)noc2C)sc1C(=O)NC(C)(C)CO [Example 74]", "GABA A α5 (α5β3γ2) (Homo sapiens, UniProt P18507+P31644)", "8.4 nM"),
    ("Cc1nc(CCc2c(-c3ccc(F)cn3)noc2C)sc1C(=O)N1CCSCC1 [Example 37]", "GABA A α5 (α5β3γ2) (Homo sapiens, UniProt P18507+P31644)", "55.9 nM"),
    ("Cc1onc(-c2ccccc2)c1/C=C/c1ncc(C(=O)NC(C)CO)s1 (stereo not drawn) [Example 66]", "GABA A α5 (α5β3γ2) (Homo sapiens, UniProt P18507+P31644)", "1.8 nM"),
    ("Cc1nc(/C=C/c2c(-c3ccccc3)noc2C)sc1C(=O)NC(C)C [Example 68]", "GABA A α5 (α5β3γ2) (Homo sapiens, UniProt P18507+P31644)", "0.4 nM"),
    ("CCCCc1noc(C)c1CCc1ncc(C(=O)NC(C)CO)s1 (stereo not drawn) [Example 58]", "GABA A α5 (α5β3γ2) (Homo sapiens, UniProt P18507+P31644)", "50.9 nM"),
]

Q: Quick one: Ki for CCCCc1noc(C)c1/C=C/c1nc(C)c(C(=O)N[C@H](CC)CO)s1 [Example 105] ?
Ans: 7.9 nM

Q: Repeat with CNC(=O)c1cnc(/C=C/c2c(-c3ccc(F)cn3)noc2C)s1 [Example 88]
Ans: 6.2 nM

Q: Repeat with Cc1nc(CCc2c(-c3ccccn3)noc2C)sc1C(=O)NC1CC1 [Example 11]
Ans: 7.7 nM

Q: Repeat with CCCCc1noc(C)c1/C=C/c1nc(C)c(C(=O)NC2CCC2)s1 [Example 115]
Ans: 4.7 nM

---

Molecular target: GABA A α5 (α5β3γ2) (Homo sapiens, UniProt P18507+P31644)
Construct: expressed in transfected cells; host or cells: HEK293, transiently transfected; membrane preparation
Experiment: [3H]flumazenil competition binding, human GABA A α5 receptor
Here, each record is paired with measured pKi data.
// scale note: pKi = -log10(conc_M); give the bare number

# SMILES NOTATION, ASSAY VALUE
data = [
    ("Cc1onc(-c2ccc(F)cn2)c1/C=C/c1ncc(C(=O)NC2CC2)s1", 8.39),
    ("Cc1onc(-c2ccc(F)cn2)c1/C=C/c1ncc(C(=O)NCC(F)(F)F)s1", 8.39),
]

Please examine the following record next.
Q: Quick one: pKi for Cc1onc(-c2ccc(F)cn2)c1CCc1ncc(C(=O)NC2CC2)s1 ?
Ans: 7.90

---

Here, each record is paired with measured Ki data.
Target: GABA A α5 (α5β3γ2) (Homo sapiens, UniProt P18507+P31644)
Construct: expressed in transfected cells; host or cells: HEK293, transiently transfected; membrane preparation
Assay: [3H]flumazenil competition binding, human GABA A α5 receptor
Settings: human receptor α5β3γ2 transiently transfected in HEK293 cells; competition for [3H]flumazenil 0.5 nM; 1 hour at 4° C.; means of two determinations; read-out: hKi GABA A α5
Protocol: Membrane Preparation and Binding Assay The affinity of compounds at GABA A receptor subtypes was measured by competition for [3H]flumazenil (85 Ci/mmol; Roche) binding to HEK293 cells expressing rat (stably transfected) or human (transiently transfected) receptors of compositional α1β3γ2, α2β3γ2, α3β3γ2 and α5β3γ2. […]
The reply should read as a number followed by its unit.

Q: Quick one: Ki for Cc1nc(CCc2c(-c3ccc(F)cn3)noc2C)sc1C(=O)NCCO [Example 36] ?
Ans: 14 nM

Q: Repeat with CCCCc1noc(C)c1/C=C/c1nc(C)c(C(=O)NC2CCOCC2)s1 [Example 96]
Ans: 1.5 nM

Q: Repeat with CCCCc1noc(C)c1/C=C/c1nc(C)c(C(=O)N2CC3(COC3)C2)s1 [Example 123]
Ans: 1.1 nM

Q: Repeat with CCCCc1noc(C)c1/C=C/c1ncc(C(=O)NCCO)s1 [Example 125]
Ans: 6.6 nM

Q: Repeat with CCCCc1noc(C)c1/C=C/c1nc(C)c(C(=O)N[C@H](C)C(F)(F)F)s1 [Example 107]
Ans: 2.6 nM

Q: Repeat with Cc1onc(-c2ccc(F)cn2)c1CCc1ncc(C(=O)NC2CCOCC2)s1 [Example 40]
Ans: 13.3 nM

Q: Repeat with Cc1onc(-c2ccccc2)c1CNc1ncc(C(=O)NC2CCOCC2)s1 [Example 136]
Ans: 27.5 nM

Q: Repeat with Cc1nc(/C=C/c2conc2-c2ccc(F)cn2)sc1C(=O)NC1CC1 [Example 91]
Ans: 35.3 nM

Q: Repeat with Cc1nc(CCc2c(-c3ccc(F)cn3)noc2C)sc1C(=O)NC(C)C [Example 32]
Ans: 7 nM

---

Biological target: GABA A α5 (α5β3γ2) (Homo sapiens, UniProt P18507+P31644)
Construct: expressed in transfected cells; host or cells: HEK293, transiently transfected; membrane preparation
Assay: [3H]flumazenil competition binding, human GABA A α5 receptor
Conditions: human receptor α5β3γ2 transiently transfected in HEK293 cells; competition for [3H]flumazenil 0.5 nM; 1 hour at 4° C.; means of two determinations; read-out: hKi GABA A α5
OUTCOME MEASURE: pKi
// scale note: pKi = -log10(conc_M); give the bare number

Worked cases, answers included:
# COMPOUND, pKi
rows = [
    ("CCCCc1noc(C)c1CCc1nc(C)c(C(=O)NC(C)C)s1", 7.64),
    ("Cc1onc(-c2ccc(F)cn2)c1/C=C/c1ncc(C(=O)N2CCSCC2)s1", 7.64),
    ("Cc1nc(/C=C/c2c(-c3ccccc3)noc2C)sc1C(=O)NC1CCOC1 (stereo not drawn)", 9.52),
    ("Cc1onc(-c2ccccn2)c1CCc1ncc(C(=O)NC2CC2)s1", 7.58),
    ("Cc1nc(CCc2c(-c3ccc(F)cn3)noc2C)sc1C(=O)NC1CC1", 8.05),
    ("CCCCc1noc(C)c1COc1ncc(C(=O)NC(C)CO)s1 (racemic)", 7.72),
]

Q: Quick one: pKi for Cc1onc(-c2ccc(F)cn2)c1/C=C/c1ncc(C(=O)NC2CCOCC2)s1 ?
Ans: 8.46

Q: Repeat with CCCCc1noc(C)c1/C=C/c1nc(C)c(C(=O)N2CC(OC)C2)s1
Ans: 7.48

Q: Repeat with Cc1onc(-c2ccccc2)c1/C=C/c1ncc(C(=O)NCCO)s1
Ans: 8.55
